Every entry's value here was drawn from patent US20050101595A1.

In this section, each of the compounds is paired with its reported CDK4 % Inhibition at 0.03 μM.
SYSTEM TESTED: human CDK4 and genetically truncated (1-264) cyclin D3 (Homo sapiens, UniProt P11802)
Sequence (P11802 whole entry, the tested form may be a part): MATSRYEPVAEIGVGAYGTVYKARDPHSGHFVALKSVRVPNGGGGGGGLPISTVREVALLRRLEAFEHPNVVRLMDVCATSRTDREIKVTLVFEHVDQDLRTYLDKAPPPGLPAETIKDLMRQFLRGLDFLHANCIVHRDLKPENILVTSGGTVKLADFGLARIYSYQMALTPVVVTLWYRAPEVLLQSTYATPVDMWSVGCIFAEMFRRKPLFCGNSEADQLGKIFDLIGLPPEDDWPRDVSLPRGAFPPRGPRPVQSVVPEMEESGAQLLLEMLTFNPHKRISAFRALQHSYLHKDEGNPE
Sequence (P30281 1-264 partner): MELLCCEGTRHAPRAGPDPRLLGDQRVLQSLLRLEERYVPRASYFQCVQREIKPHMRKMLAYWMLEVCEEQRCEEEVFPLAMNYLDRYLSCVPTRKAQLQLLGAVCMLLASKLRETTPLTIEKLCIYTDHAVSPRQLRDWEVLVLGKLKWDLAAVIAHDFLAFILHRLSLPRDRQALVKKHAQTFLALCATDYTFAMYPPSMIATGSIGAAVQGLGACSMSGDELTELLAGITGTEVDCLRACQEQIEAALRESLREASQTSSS
RUN DESCRIPTION: Inhibition of CDK4/Cyclin D Retinoblastoma Kinase Activity
Type: biochemical
TEST PARAMETERS: 0.03 μM compound; Table 2
READOUT: CDK4 % Inhibition at 0.03 μM

>>> df
                                   compound  observed_value
0  Nc1nc(NC2CCN(C(=O)Nc3ccccc3F)CC2)sc1C(=O)c1c(F)cccc1F [Example O5]              3%
1  Nc1nc(NC2CCN(C(=O)Nc3ccccc3Br)CC2)sc1C(=O)c1c(F)cccc1F [Example O4]             10%
2  Nc1nc(NC2CCN(C(=O)NCCCl)CC2)sc1C(=O)c1c(F)cccc1F [Example O32]             12%
3  Nc1nc(NC2CCN(C(=O)Nc3cccc(Br)c3)CC2)sc1C(=O)c1c(F)cccc1F [Example O12]              3%

----------
Test system: HCT-116 cell line
RUN DESCRIPTION: Inhibition of cell growth, tetrazolium salt (MTT) assay
Assay type: cell-based
TEST PARAMETERS: 0.25 μM compound; HCT-116; Table 3
Protocol: Inhibition of Cell Growth: Assessment of Cytotoxicity: Inhibition of cell growth was measured using the tetrazolium salt assay, which is based on the ability of viable cells to reduce 3-(4,5-dimethylthiazol-2-yl)-2,5-[2H]-diphenyltetrazolium bromide (MTT) to formazan (Mossman, Journal of Immunological Methods, vol. 65 (1983), pp. 55-58). The water-insoluble purple formazan product was then detected spectrophotometrically. […]
READOUT: HCT-116 % Inhibition at 0.25 μM (%)

In [3]: df
Out[3]:
                                   molecule  unit_abbreviation  observed_value
0  CCCCS(=O)(=O)N1CCC(Nc2nc(N)c(C(=O)c3c(F)cccc3F)s2)CC1 [Example P27]                  %              23
1  Nc1nc(NC2CCN(S(=O)(=O)c3ccccc3F)CC2)sc1C(=O)c1c(F)cccc1F [Example P32]                  %              28
2  Nc1nc(NC2CCN(S(=O)(=O)c3cccs3)CC2)sc1C(=O)c1c(F)cccc1F [Example P5]                  %              32
3  Cc1cc(C)c(S(=O)(=O)N2CCC(Nc3nc(N)c(C(=O)c4c(F)cccc4F)s3)CC2)c(C)c1 [Example P10]                  %              35

----------
SYSTEM TESTED: human CDK4 and genetically truncated (1-264) cyclin D3 (Homo sapiens, UniProt P11802)
RUN DESCRIPTION: Inhibition of CDK4/Cyclin D Retinoblastoma Kinase Activity
TEST PARAMETERS: apparent Ki, CDK4/truncated cyclin D3, Rb fragment substrate, 25 μM ATP
Structures can show the parent of a compound that is named as a salt.
Entries whose Ki is below 2 nM take met; entries at or above 2 nM take not met.

MOLECULE	ANSWER LABEL
Nc1nc(NC2CCN(S(=O)(=O)c3ccc(N4CCC[C@H]4CO)nc3)CC2)sc1C(=O)c1c(F)cccc1F [Example G14, Trifluoroacetic Acid Salt]	met
Nc1nc(NC2CCN(S(=O)(=O)CCN3CCCC3c3ccccc3)CC2)sc1C(=O)c1c(F)cccc1F (centres unmarked) [Example K29, Trifluoroacetic Acid Salt]	met
Nc1nc(NC2CCN(S(=O)(=O)c3ccc(N4CCC(O)C4)nc3)CC2)sc1C(=O)c1c(F)cccc1F (centres unmarked) [Example G11, Trifluoroacetic Acid Salt]	met
Nc1nc(NC2CCN(S(=O)(=O)CCN3CCCC3)CC2)sc1C(=O)c1c(F)cccc1F	met
Nc1nc(NC2CCN(S(=O)(=O)c3cc(Cl)sc3Cl)CC2)sc1C(=O)c1c(F)cccc1F	not met
Nc1nc(NC2CCN(S(=O)(=O)c3ccc(Sc4ccccn4)nc3)CC2)sc1C(=O)c1c(F)cccc1F [Example L2, Dihydrochloride]	not met
Cc1c[nH]c(-c2ccc(S(=O)(=O)N3CCC(Nc4nc(N)c(C(=O)c5c(F)cccc5F)s4)CC3)cn2)n1 [Example I2, Hydrochloride]	met
Nc1nc(NC2CCN(S(=O)(=O)c3ccc(CCNc4ccccc4O)nc3)CC2)sc1C(=O)c1c(F)cccc1F [Example N1, Trifluoroacetic Acid Salt]	met
Nc1nc(NC2CCN(S(=O)(=O)c3ccc(N4CCC[C@H](CO)C4)nc3)CC2)sc1C(=O)c1c(F)cccc1F	met
CC(=O)Nc1ccc(S(=O)(=O)N2CCCC(Nc3nc(N)c(C(=O)c4c(F)cccc4F)s3)C2)cc1 (centres unmarked)	not met
Nc1nc(NC2CCN(S(=O)(=O)CCCN3CC=CCC3)CC2)sc1C(=O)c1c(F)cccc1F	met
CN(C)CCOc1ccc(S(=O)(=O)N2CCC(Nc3nc(N)c(C(=O)c4c(F)cccc4F)s3)CC2)cn1 [Example H3, Hydrochloride]	met
CN(C)CCSc1ccc(S(=O)(=O)N2CCC(Nc3nc(N)c(C(=O)c4c(F)cccc4F)s3)CC2)cn1 [Example L1, Dihydrochloride]	met
C[C@@H]1CN(Cc2ccc(S(=O)(=O)N3CCC(Nc4nc(N)c(C(=O)c5c(F)cccc5F)s4)CC3)cc2)C[C@H](C)N1 [Example J10, Hydrochloride Salt]	met
Cn1cnc(S(=O)(=O)N2CCC(Nc3nc(N)c(C(=O)c4c(F)cccc4F)s3)CC2)c1	met
CN1CCC(Oc2ccc(S(=O)(=O)N3CCC(Nc4nc(N)c(C(=O)c5c(F)cccc5F)s4)CC3)cn2)CC1 [Example H14, Hydrochloride]	met
CN(C)[C@@H](Cc1ccccc1)C(=O)N1CCC(Nc2nc(N)c(C(=O)c3c(F)cccc3F)s2)CC1	not met
CC1CCCC(NCCS(=O)(=O)N2CCC(Nc3nc(N)c(C(=O)c4c(F)cccc4F)s3)CC2)C1 (mixture of isomers)	not met
CN(C)CCCSc1ccc(S(=O)(=O)N2CCC(Nc3nc(N)c(C(=O)c4c(F)cccc4F)s3)CC2)cn1 [Example L5, Dihydrochloride]	met
Cc1cncn1-c1ccc(S(=O)(=O)N2CCC(Nc3nc(N)c(C(=O)c4c(F)cccc4F)s3)CC2)cn1 [Example G28, Hydrochloride]	met
Cc1ccc(C(=O)/C=C/C(=O)N2CCC(Nc3nc(N)c(C(=O)c4c(F)cccc4F)s3)CC2)cc1	not met
Nc1nc(NC2CCN(S(=O)(=O)Cc3ccccc3)CC2)sc1C(=O)c1c(F)cccc1F	not met
CC(=O)Nc1ccc(S(=O)(=O)N2CCC(Nc3nc(N)c(C(=O)c4c(F)cccc4F)s3)CC2)cc1	met
C[C@@H]1CN(CCc2ccc(S(=O)(=O)N3CCC(Nc4nc(N)c(C(=O)c5c(F)cccc5F)s4)CC3)cn2)C[C@H](C)N1 [Example N8, Hydrochloride Salt]	met

----------
In this section, each of the compounds is paired with its reported Ki.
SYSTEM TESTED: human CDK4 and genetically truncated (1-264) cyclin D3 (Homo sapiens)
RUN DESCRIPTION: Inhibition of CDK4/Cyclin D Retinoblastoma Kinase Activity
TEST PARAMETERS: apparent Ki, CDK4/truncated cyclin D3, Rb fragment substrate, 25 μM ATP
Structures can show the parent of a compound that is named as a salt.

COMPOUND	SYSTEM TESTED	Ki
Nc1nc(NC2CCN(S(=O)(=O)c3ccc(-c4cccnc4)nc3)CC2)sc1C(=O)c1c(F)cccc1F [Example I6, Hydrochloride]	human CDK4 and genetically truncated (1-264) cyclin D3 (Homo sapiens)	0.37 nM
C[C@@H]1CN(c2ccc(S(=O)(=O)N3CCC(Nc4nc(N)c(C(=O)c5c(F)cccc5F)s4)CC3)cn2)C[C@H](C)N1 [Example G15, Trifluoroacetic Acid Salt]	human CDK4 and genetically truncated (1-264) cyclin D3 (Homo sapiens)	0.28 nM
Nc1nc(NC2CCN(S(=O)(=O)c3ccc(CCN4C[C@@H]5[C@@H](N)[C@@H]5C4)nc3)CC2)sc1C(=O)c1c(F)cccc1F [Example N10, Hydrochloride Salt]	human CDK4 and genetically truncated (1-264) cyclin D3 (Homo sapiens)	0.21 nM
CC1C=CC(C)N1CCS(=O)(=O)N1CCC(Nc2nc(N)c(C(=O)c3c(F)cccc3F)s2)CC1 (mixture of isomers) [Example K27, Trifluoroacetic Acid Salt]	human CDK4 and genetically truncated (1-264) cyclin D3 (Homo sapiens)	3.5 nM
CNc1ccc(S(=O)(=O)N2CCC(Nc3nc(N)c(C(=O)c4c(F)cccc4F)s3)CC2)cn1	human CDK4 and genetically truncated (1-264) cyclin D3 (Homo sapiens)	1.6 nM
Nc1nc(NC2CCN(S(=O)(=O)c3ccc(OCCNC4CC4)nc3)CC2)sc1C(=O)c1c(F)cccc1F [Example H21, Hydrochloride Salt]	human CDK4 and genetically truncated (1-264) cyclin D3 (Homo sapiens)	0.28 nM
